LD50 values, listed per item
# procedure-text: in vivo
# test-context: po, rat, p.o., read-out: DL50 (the source's name)
property-measured: LD50 (mg/kg)

INSERT INTO assay_data (compound, val) VALUES
  ('CC=CCC(C(=O)O)c1ccc(-c2ccc(Cl)cc2)cc1 (racemic) [SCR 158]', 940),
  ('CC=CCC(C(=O)O)c1ccc(-c2ccc(F)cc2)cc1 (centres unmarked) [SCR 159]', 900);

---

# Tested on: Cotton-pellets induced granuloma
# procedure-text: Cotton-pellets induced granuloma
# Format: in vivo
# test-context: 200 mg/Kg p.o.
property-measured: % inhibition (%)

INSERT INTO measurements (compound, property_measured, val) VALUES
  ('CCCCC1C(=O)N(c2ccccc2)N(c2ccc(O)cc2)C1=O (stereo not shown) [Oxyphenbutazone, reference compound]', '% inhibition', 24),
  ('CC=CCC(C(=O)O)c1ccc(-c2ccccc2)cc1 (single isomer, unassigned; (-)) [SCR 156, (-) 2-(4-biphenylyl)-4-hexenoic acid]', '% inhibition', 11),
  ('CC=CCC(C(=O)O)c1ccc(-c2ccccc2)cc1 (single isomer, unassigned; (+)) [SCR 152, (+) 2-(4-biphenylyl)-4-hexenoic acid]', '% inhibition', 12),
  ('CC=CCC(C(=O)O)c1ccc(-c2ccccc2)cc1 (racemic) [SCR 157, 2-(4-biphenyl)-4-hexenoic acid]', '% inhibition', 29);
